# TEST PROTOCOL: Extended Characterization of HPGD Inhibitors: PGE2 Assay in LNCaP Cells
# CONDITION SUMMARY: PGE2 HTRF level, 16 h; series mostly up to 100 µM
Inconclusive results are not listed. Calls of active or inactive are those of the source. Calls come from the whole dose curve; as a rule, active = well fitted activation curve with a large enough effect; inconclusive = small, poorly fitted or top-dose-only effect; inactive = no such curve, though single readings can be large or run the other way.
PROPERTY MEASURED: Potency

Worked set:
FC(F)(F)c1cccc(CSc2nc3ncc(Br)cc3[nH]2)c1 :: 35.2 µM (active)
CC(C)(C)c1ccc(-n2cnc3cc(C(=O)N4CCCCC4)ccc32)cc1 :: 4.43 µM (active)
Cc1cc(-c2nnc3n2CCCC3)c(C)n1-c1ccccc1 :: 7.03 µM (active)
FC(F)(F)c1ccc(-c2nc(-c3nnc4n3CCCCC4)c(C(F)(F)F)o2)cc1 :: inactive
Cc1cccc(-n2cnc3cc(C(=O)N4CCC(C#N)CC4)ccc32)c1 :: inactive

// `FC(F)(F)c1ccc(CSc2nc3ncc(Br)cc3[nH]2)cc1` : Potency value = 44.3 µM (active)

// `Cc1cccc(-n2cnc3cc(C(=O)N4CCCC4)ccc32)c1` : Potency value = 55.8 µM (active)

// `N#Cc1ccccc1CSc1nc2ncc(Br)cc2[nH]1` : Potency value = 35.2 µM (active)

// `Clc1ccc(CSc2nc3ncc(Br)cc3[nH]2)cc1` : Potency value = 14 µM (active)

// Cc1cccc(-n2cnc3cc(C(=O)N4CCCC(C(F)(F)F)C4)ccc32)c1 (stereo unspecified) : Potency value = 1.76 µM (active)

// `Cc1cccc(-n2cnc3cc(C(=O)N4CCC(Cc5ccccc5)CC4)ccc32)c1` : Potency value = inactive

// `Brc1cnc2nc(SCc3cccnc3)[nH]c2c1` : Potency value = 7.03 µM (active)

// `Cc1cc(-c2nnc3n2CCCCC3)c(C)n1-c1ccc(Cl)c(Cl)c1` : Potency value = 0.352 µM (active)

// `O=[N+]([O-])c1ccccc1CSc1nc2ncc(Br)cc2[nH]1` : Potency value = 0.352 µM (active)

// `COc1ccc(CSc2nc3ncc(Br)cc3[nH]2)cc1F` : Potency value = 22.2 µM (active)

// `CC(C)(C)n1cnc2cc(C(=O)N3CCCCC3)ccc21` : Potency value = 0.884 µM (active)

// `COc1cccc(-n2cnc3cc(C(=O)N4CCCCC4)ccc32)c1` : Potency value = 0.28 µM (active)

// `CCOC(=O)c1ccc(-n2cnc3cc(C(=O)N4CCCCC4)ccc32)cc1` : Potency value = inactive

// `Cc1cc(-c2nnc3n2CCCCC3)c(C)n1-c1cccc(C#N)c1` : Potency value = 1.76 µM (active)

// `Cc1ccc(-n2cnc3cc(C(=O)N4CCCCC4)ccc32)cc1` : Potency value = 0.443 µM (active)

// `Cc1cccc(-n2cnc3cc(C(=O)N4CCCCCC4)ccc32)c1` : Potency value = 1.76 µM (active)

// `O=C(c1ccc2c(c1)ncn2-c1cccc(Cl)c1)N1CCCCC1` : Potency value = 0.222 µM (active)

// `Brc1cnc2nc(SCc3ccccn3)[nH]c2c1` : Potency value = 11.1 µM (active)

// `Cc1cc(-c2nnc3n2CCCCC3)c(C)n1-c1ccc(Br)cc1` : Potency value = 2.8 µM (active)
